Data provenance is PubChem BioAssay AID1159580.

normalized growth values for the compounds below.
Assay: chemical genetic growth profiling, strain panel (AID 1159580);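 note: tested at 20 µM; growth read once vehicle control cultures reached saturation at 30 °C; 1 = growth at the plate median or of vehicle wells; lower values mean less growth of the strain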
Conditions: S. cerevisiae deletion strains, growth OD, locus YNL250W, strain rad50, hits give low values
About 2,000 (36%) of roughly 5,500 compounds were called active. Roughly 18% stayed inconclusive and do not appear here. Some of the results follow.
EXPERIMENTAL_ENDPOINT: normalized growth

COMPOUND	OBSERVED
CC1=C(C(=O)O)N2C(=O)[C@@H](NC(=O)[C@H](N)C3=CCC=CC3)C2SC1 (some centres not stated)	1
CCOC(=O)C1=C(C)NC(C)=C(C(=O)OC)C1c1cccc([N+](=O)[O-])c1 (configuration not stated)	1.01
Fc1ccc(C(c2ccc(F)cc2)N2CCN(C/C=C/c3ccccc3)CC2)cc1	0.992
CC(C(=O)O)c1ccc(N2Cc3ccccc3C2=O)cc1 (configuration not stated)	1.01
C[C@]12CCC3c4ccc(O)cc4CCC3C1CC[C@@H]2OC(=O)CCC1CCCC1 (some centres not stated)	1.01
CCC(=O)O[C@H]1CCC2C3CCc4cc(O)ccc4C3CC[C@@]21C (some centres not stated)	0.998
CN1CCN(CCCN2c3ccccc3Sc3ccc(Cl)cc32)CC1	0.983

----------
Assay: chemical genetic growth profiling, strain panel (AID 1159580)
Details: S. cerevisiae deletion strains, growth OD, locus YKL193C, strain SDS22, hits give low values
The whole screen tested about 5,500 compounds, of which about 2,000 (36%) were called active. Inconclusive results (about 18%) are left out. The list shows a part of the results.
EXPERIMENTAL_ENDPOINT: normalized growth

CHEMICAL_STRUCTURE	EXPERIMENTAL_ENDPOINT	OBSERVED
Cc1c(Cl)cccc1N=C1SCC(=O)N1Cc1ccco1	normalized growth	0.966
COc1cc(OC)cc(/C(N)=N\O)c1	normalized growth	0.992
Cc1nc(C(F)(F)F)ccc1-c1nnc(SC(=O)c2ccc(Cl)cc2)o1	normalized growth	0.874
COc1cccc(C(=O)C(C#N)=C(SC)SC)c1	normalized growth	0.886
O=C1CSC(=Nc2cc(Cl)cc(Cl)c2)N1Cc1cccnc1	normalized growth	0.999
N#Cc1c(N)sc2c1CCc1ccccc1-2	normalized growth	0.888
CC(/C=C/c1ccccc1)=N/OC(=O)c1ccccc1Cl	normalized growth	0.974
O=C(c1ccc(Cl)cc1)N1CCN(c2ccc(C(F)(F)F)cn2)CC1	normalized growth	0.988
Cc1nc(C(F)(F)F)ccc1C(=O)Sc1nnc(-c2ccc(C(F)(F)F)nc2C)o1	normalized growth	0.949

----------
Assay: chemical genetic growth profiling, strain panel (AID 1159580)
Settings: S. cerevisiae deletion strains, growth OD, locus YDL040C, strain nat1, hits give low values
The campaign covered roughly 5,500 compounds. About 2,000 (36%) were called active. About 18% were inconclusive and are not listed. This is one part of the list.

MOLECULE	normalized growth
CC(=O)O[C@@H]1CC2C(C)(C)[C@H](O)C[C@H](O)[C@]2(C)C2CC[C@@]3(C)C(=CC(=O)O[C@H]3c3ccoc3)[C@@]21C (some centres undefined)	0.99 (inactive)
CN1CCN(CCCN2c3ccccc3Sc3ccc(Cl)cc32)CC1	0.964 (inactive)
Nc1ncnc2nc[nH]c12	0.983 (inactive)
CN(C)c1nc(N(C)C)nc(N(C)C)n1	0.991 (inactive)
OCCN1CCN(CCCN2c3ccccc3Sc3ccc(Cl)cc32)CC1	1 (inactive)
COc1cc2ccc(=O)oc2c2ccoc12	1 (inactive)
CCS(=O)(=O)CCn1c([N+](=O)[O-])cnc1C	0.995 (inactive)
CC(C)=CCC/C(C)=C/COc1ccc2ccc(=O)oc2c1	0.986 (inactive)
CC1=C(C(=O)O)N2C(=O)[C@@H](NC(=O)[C@H](N)C3=CCC=CC3)C2SC1 (some centres undefined)	1.02 (inactive)

----------
Assay: chemical genetic growth profiling, strain panel (AID 1159580)
Settings: S. cerevisiae deletion strains, growth OD, locus YNL298W, strain CLA4
The campaign covered roughly 5,500 compounds. About 2,000 (36%) were called active. Inconclusive results (about 18%) are left out. No stated cut-off is given here; in the data, active means normalized growth mostly below about 0.91 (no sharp cut-off); inconclusive means no clear call, values can overlap the other calls; inactive means mostly above about 0.92. The list shows a part of the results.
Outcomes: YES for active, NO for inactive

CHEMICAL_STRUCTURE	CLASS_LABEL
Cn1cnc([N+](=O)[O-])c1Sc1ncnc2nc[nH]c12	NO
O=c1ccc2cc(O[C@@H]3O[C@H](CO)[C@@H](O)[C@H](O)[C@H]3O)c(O)cc2o1	NO
O=c1[nH]cnc2nc[nH]c12	NO
CC1(C)C=Cc2c(cc3occ(-c4ccc5c(c4)OCO5)c(=O)c3c2O)O1	NO
COc1ccc2ccc(=O)oc2c1CC=C(C)C	YES
CC(C)=CCOc1cc2oc(=O)ccc2cc1O	NO

----------
normalized growth values for the molecules below.
Test: chemical genetic growth profiling, strain panel (AID 1159580);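 note: tested at 20 µM; growth read once vehicle control cultures reached saturation at 30 °C; 1 = growth at the plate median or of vehicle wells; lower values mean less growth of the strain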
Conditions: S. cerevisiae deletion strains, growth OD, locus YMR263W, strain SAP30, hits give low values
The campaign covered roughly 5,500 compounds. About 2,000 (36%) were called active. Roughly 18% stayed inconclusive and do not appear here. The list shows a part of the results.

MOLECULE	normalized growth
CC1(C)C=Cc2c(cc3occ(-c4ccc5c(c4)OCO5)c(=O)c3c2O)O1	1
c1coc(CNc2ncnc3nc[nH]c23)c1	0.986
O=c1[nH]cnc2nc[nH]c12	0.999
O=c1c(-c2ccc3c(c2)OCO3)coc2cc(O)ccc12	1.01
C[C@]12CCC3C(CC[C@H]4C[C@@H](O)CC[C@]34C)C1CCC2=O (some centres undefined)	0.925
COc1ccccc1N1CCN(S(=O)(=O)c2ccc(C(F)(F)F)cc2)CC1	0.977
CCCc1ccc(OC)cc1NC(C)=O	1.01
Cc1ccc(S(=O)(=O)Oc2ccc(CC#N)cc2)cc1	0.995
O=[N+]([O-])c1ccc(C2N(Cc3ccccc3)CCC3CCCCN32)cc1 (centres undefined)	0.998
C#CCN1C(C)=C(C(=O)OC)C(c2cccc([N+](=O)[O-])c2)C(C(=O)OCC)=C1C (centres undefined)	1.02
Cc1oc(-c2ccccc2)cc1C(=O)N1CCN(c2ccc(C(F)(F)F)cn2)CC1	0.919
COc1ccc(-c2c(C(=O)O)sc(SC)c2C#N)cc1	1.04
COP(=S)(OC)SCn1nnc2ccccc2c1=O	0.95
COc1cc(O)c(C(=O)c2ccccc2)c(OC)c1	0.962

----------
Test: chemical genetic growth profiling, strain panel (AID 1159580);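 note: tested at 20 µM; growth read once vehicle control cultures reached saturation at 30 °C; 1 = growth at the plate median or of vehicle wells; lower values mean less growth of the strain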
Settings: S. cerevisiae deletion strains, growth OD, locus YBR279W, strain paf1, hits give low values
Hit rate of the full screen: of about 5,500 compounds, about 2,000 (36%) were called active. Another 18% or so got no clear call; they are omitted. The list shows a part of the results.
normalized growth values for the molecules below.
EXPERIMENTAL_ENDPOINT: normalized growth

MOLECULE	OBSERVED
CCS(=O)(=O)CCn1c([N+](=O)[O-])cnc1C	0.985
C[C@H]1C(=O)O[C@@H]2CCN3CC=C(COC(=O)[C@](C)(O)[C@]1(C)O)[C@H]23	0.99
O=C1c2ccccc2-c2cccc3cccc1c23	0.884
CC1(C)S[C@@H]2[C@H](NC(=O)COc3ccccc3)C(=O)N2[C@H]1C(=O)O	0.999
CC(=O)N[C@@H](CC(=O)O)C(=O)O	1
Cn1nnnc1SCC1=C(C(=O)O)N2C(=O)C(NC(=O)C(OC=O)c3ccccc3)C2SC1 (stereo not drawn)	0.999
O=c1c(-c2ccc3c(c2)OCO3)coc2cc(O)ccc12	0.994
COc1cc(OC)c2c(c1Cl)OC1(C2=O)C(O)=CC(=O)CC1C (stereo not drawn)	1.01
OC[C@@H](O)C(O[C@@H]1O[C@H](CO)[C@H](O)[C@H](O)[C@H]1O)[C@H](O)[C@@H](O)CO (stereo partly drawn)	0.981
COc1cc2ccc(=O)oc2c2ccoc12	0.99
CCCCC(=O)N(Cc1ccc(-c2ccccc2-c2nn[nH]n2)cc1)[C@H](C(=O)O)C(C)C	1
COc1c2occc2cc2ccc(=O)oc12	0.98
CC(C)=CCc1c(O)cc2occ(-c3ccc4c(c3)OCO4)c(=O)c2c1O	0.993

----------
Test: chemical genetic growth profiling, strain panel (AID 1159580);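 note: tested at 20 µM; growth read once vehicle control cultures reached saturation at 30 °C; 1 = growth at the plate median or of vehicle wells; lower values mean less growth of the strain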
Settings: S. cerevisiae deletion strains, growth OD, locus YEL037C, strain rad23, hits give low values
The campaign covered roughly 5,500 compounds. About 2,000 (36%) were called active. Roughly 18% stayed inconclusive and do not appear here. This is one part of the list.
normalized growth values for the compounds below.

COMPOUND	normalized growth
O=C(O)CCCN1C(=O)c2cccc3cccc(c23)C1=O	1.01
O=C(/C=C/C(=O)Oc1ccccc1C(=O)O)Oc1ccccc1C(=O)O	0.998
CC1(C)C=Cc2c(cc3occ(-c4ccc5c(c4)OCO5)c(=O)c3c2O)O1	0.977
C[C@]12C=CC(=O)C=C1CCC1C2CC[C@]2(C)C(=O)CCC12 (stereo not given in full)	0.989
NCCS	0.983
CC(=O)Oc1ccc2c(c1)CCC1C2CCC2(C)C1CC(OC(C)=O)C2OC(C)=O (stereo not given)	1.02
CC1=C2CCC3C(CC[C@]4(C)C(=O)CCC34)[C@@]2(C)CCC1=O (stereo not given in full)	0.985
CC(C)=CCc1c(O)cc2occ(-c3ccc4c(c3)OCO4)c(=O)c2c1O	0.994
CC(=O)OC1CCC2C3CCc4cc(O)ccc4C3CCC12C (stereo not given)	1
Cc1ncc([N+](=O)[O-])n1CCO	0.976
COc1ccc2c(=O)c(-c3cc4c(cc3OC)OCO4)coc2c1	1.01
CN(C)c1nc(N(C)C)nc(N(C)C)n1	0.988
CCCCC/C=C\C/C=C\C/C=C\C/C=C\CCCC(=O)O	0.974
COc1c2c(cc3occ(-c4ccc5c(c4)OCO5)c(=O)c13)OC(C)(C)C=C2	1
O=c1c(-c2ccc3c(c2)OCO3)coc2cc(O)ccc12	1
CCOC(=O)C1=C(C)NC(C)=C(C(=O)OC)C1c1cccc([N+](=O)[O-])c1 (stereo not given)	1.01
OCCN1CCN(CCCN2c3ccccc3Sc3ccc(Cl)cc32)CC1	1
COc1ccc2c(=O)c(CC(=O)O)coc2c1	0.977
COc1ccc2c(c1)[nH]c1c(C)nccc12	0.991
C[N+]1(C)C2CC[C@H]1CC(OC(=O)C(O)c1ccccc1)C2 (stereo not given in full)	1
O=c1ccc2ccc(O)c(O)c2o1	1.01
N#C/C(=C\c1ccc(O)cc1)C(=O)O	0.986
COc1cc2ccc(=O)oc2cc1O	0.974
COP(=S)(OC)SCn1nnc2ccccc2c1=O	1.01
CC1(C)S[C@@H]2[C@H](NC(=O)COc3ccccc3)C(=O)N2[C@H]1C(=O)O	0.992
CC(=O)Oc1ccc2c(c1)CCC1C2CC[C@@]2(C)C1CC[C@@H]2OC(C)=O (stereo not given in full)	0.992
CCS(=O)(=O)CCn1c([N+](=O)[O-])cnc1C	0.981
C[C@]12C=CC(=O)C=C1CCC1C2C(=O)C[C@@]2(C)C1CC[C@]2(O)C(=O)CO (stereo not given in full)	0.996
C[C@]12CCC3C(CC[C@H]4CC(=O)CC[C@]34C)C1CCC2=O (stereo not given in full)	1.01
O=c1ccc2cc(O[C@@H]3O[C@H](CO)[C@@H](O)[C@H](O)[C@H]3O)c(O)cc2o1	0.982
CNC(=O)CSP(=S)(OC)OC	1.02
Cc1nccc2c1[nH]c1ccccc12	0.983
COc1cc(O)c(C(=O)O)c(O)c1	0.985
CC(C(=O)O)c1ccc(N2Cc3ccccc3C2=O)cc1 (stereo not given)	0.975
CN1CCN(C(c2ccccc2)c2ccccc2)CC1	0.988
